test system: HCT-15; assay: Growth inhibition of human HCT15 cells after 48 hrs by SRB assay; format: functional; conditions: HCT-15, 48 h, read-out: LC50 (the source's name)
measured parameter: CC50 (nM)
Just the number in nM, nothing appended.

compound="CN1CCN(Cc2ccc(C(c3ccccc3)C34CC5CC(CC(C5)C3)C4)cc2)CC1 (centres undefined)" observed_result=9.1
compound="CN1CCN(CCCc2ccc(C(c3ccccc3)C34CC5CC(CC(C5)C3)C4)cc2)CC1 (centres undefined)" observed_result=9.2
compound="CCN1CCN(CCc2ccc(C(c3ccccc3)C34CC5CC(CC(C5)C3)C4)cc2)CC1 (centres undefined)" observed_result=100
compound="c1ccc(C(c2ccc(CCCN3CCCCC3)cc2)C23CC4CC(CC(C4)C2)C3)cc1 (centres undefined)" observed_result=9.68

Query: Checklist item: CC50 tested on HCT-15, entry c1ccc(C(c2ccc(CCCN3CCNCC3)cc2)C23CC4CC(CC(C4)C2)C3)cc1 (centres undefined) , value?
Result: 9.11

Query: Repeat with CN1CCN(CCc2ccc(C(c3ccccc3)C34CC5CC(CC(C5)C3)C4)cc2)CC1 (centres undefined)
Result: 100

Query: Repeat with c1ccc(C(c2ccc(CN3CCCCC3)cc2)C23CC4CC(CC(C4)C2)C3)cc1 (centres undefined)
Result: 100

Query: Repeat with c1ccc(C(c2ccc(CCN3CCCCC3)cc2)C23CC4CC(CC(C4)C2)C3)cc1 (centres undefined)
Result: 82

Query: Repeat with CCN1CCN(Cc2ccc(C(c3ccccc3)C34CC5CC(CC(C5)C3)C4)cc2)CC1 (centres undefined)
Result: 9.4

---

tested on: HCT-15; assay: Growth inhibition of human HCT15 cells after 48 hrs by SRB assay; assay type: functional; settings: HCT-15, 48 h, read-out: LC50 (the source's name)
Reported CC50 values are given for each entry in this list.
Just the number in nM, nothing appended.

// worked examples, CC50 included
molecule=O=c1[nH]cc(F)c(=O)[nH]1 observed_result=100
molecule="CCN1CCN(CCCc2ccc(C(c3ccccc3)C34CC5CC(CC(C5)C3)C4)cc2)CC1 (stereo not drawn)" observed_result=47.3

API: the following record is the query input.
Query: Give the measured CC50 of c1ccc(C(c2ccc(CN3CCNCC3)cc2)C23CC4CC(CC(C4)C2)C3)cc1 (stereo not drawn) .
Result: 8.24

---

Reported TGI values are given for each entry in this list.
system: MCF7; assay: Growth inhibition of human MCF7 cells after 48 hrs by SRB assay; assay type: functional; conditions: MCF7, 48 h
Just the number in µM, nothing appended.

// worked examples, TGI included
compound="CN1CCN(CCCc2ccc(C(c3ccccc3)C34CC5CC(CC(C5)C3)C4)cc2)CC1 (stereo not drawn)" observed_result=6.1
compound="c1ccc(CN2CCN(CCCc3ccc(C(c4ccccc4)C45CC6CC(CC(C6)C4)C5)cc3)CC2)cc1 (stereo not drawn)" observed_result=61.7
compound="c1ccc(C(c2ccc(CCCN3CCCCC3)cc2)C23CC4CC(CC(C4)C2)C3)cc1 (stereo not drawn)" observed_result=6.07
compound="CCN1CCN(Cc2ccc(C(c3ccccc3)C34CC5CC(CC(C5)C3)C4)cc2)CC1 (stereo not drawn)" observed_result=5.92
compound="c1ccc(C(c2ccc(CN3CCNCC3)cc2)C23CC4CC(CC(C4)C2)C3)cc1 (stereo not drawn)" observed_result=5.51

Query: Give the measured TGI of CCN1CCN(CCc2ccc(C(c3ccccc3)C34CC5CC(CC(C5)C3)C4)cc2)CC1 (stereo not drawn) .
Result: 8.5

Query: Repeat with CCN1CCN(CCCc2ccc(C(c3ccccc3)C34CC5CC(CC(C5)C3)C4)cc2)CC1 (stereo not drawn)
Result: 5.87

Query: Repeat with c1ccc(C(c2ccc(CCCN3CCNCC3)cc2)C23CC4CC(CC(C4)C2)C3)cc1 (stereo not drawn)
Result: 5.97

Query: Repeat with CN1CCN(CCc2ccc(C(c3ccccc3)C34CC5CC(CC(C5)C3)C4)cc2)CC1 (stereo not drawn)
Result: 5.7

Query: Repeat with O=c1[nH]cc(F)c(=O)[nH]1
Result: 100

Query: Repeat with c1ccc(C(c2ccc(CN3CCCCC3)cc2)C23CC4CC(CC(C4)C2)C3)cc1 (stereo not drawn)
Result: 43

Query: Repeat with CN1CCN(Cc2ccc(C(c3ccccc3)C34CC5CC(CC(C5)C3)C4)cc2)CC1 (stereo not drawn)
Result: 5.29

Query: Repeat with c1ccc(C(c2ccc(CCN3CCCCC3)cc2)C23CC4CC(CC(C4)C2)C3)cc1 (stereo not drawn)
Result: 42.4

---

system: MCF7; test: Growth inhibition of human MCF7 cells after 48 hrs by SRB assay; type: functional; settings: MCF7, 48 h, read-out: LC50 (the source's name)
measured parameter: CC50 (nM)
Just the number in nM, nothing appended.

compound="CCN1CCN(CCCc2ccc(C(c3ccccc3)C34CC5CC(CC(C5)C3)C4)cc2)CC1 (stereo not drawn)" observed_result=8.61

Query: Give the measured CC50 of CN1CCN(Cc2ccc(C(c3ccccc3)C34CC5CC(CC(C5)C3)C4)cc2)CC1 (stereo not drawn) .
Result: 8.33

Query: Repeat with c1ccc(C(c2ccc(CN3CCNCC3)cc2)C23CC4CC(CC(C4)C2)C3)cc1 (stereo not drawn)
Result: 8.57

Query: Repeat with CCN1CCN(Cc2ccc(C(c3ccccc3)C34CC5CC(CC(C5)C3)C4)cc2)CC1 (stereo not drawn)
Result: 9.58

Query: Repeat with c1ccc(C(c2ccc(CCN3CCCCC3)cc2)C23CC4CC(CC(C4)C2)C3)cc1 (stereo not drawn)
Result: 98.5

Query: Repeat with c1ccc(CN2CCN(CCCc3ccc(C(c4ccccc4)C45CC6CC(CC(C6)C4)C5)cc3)CC2)cc1 (stereo not drawn)
Result: 100

Query: Repeat with CN1CCN(CCCc2ccc(C(c3ccccc3)C34CC5CC(CC(C5)C3)C4)cc2)CC1 (stereo not drawn)
Result: 9

Query: Repeat with O=c1[nH]cc(F)c(=O)[nH]1
Result: 100

Query: Repeat with c1ccc(C(c2ccc(CCCN3CCNCC3)cc2)C23CC4CC(CC(C4)C2)C3)cc1 (stereo not drawn)
Result: 8.84

Query: Repeat with CCN1CCN(CCc2ccc(C(c3ccccc3)C34CC5CC(CC(C5)C3)C4)cc2)CC1 (stereo not drawn)
Result: 97.1

Query: Repeat with c1ccc(C(c2ccc(CN3CCCCC3)cc2)C23CC4CC(CC(C4)C2)C3)cc1 (stereo not drawn)
Result: 80.6

Query: Repeat with c1ccc(C(c2ccc(CCCN3CCCCC3)cc2)C23CC4CC(CC(C4)C2)C3)cc1 (stereo not drawn)
Result: 9.63

Query: Repeat with CN1CCN(CCc2ccc(C(c3ccccc3)C34CC5CC(CC(C5)C3)C4)cc2)CC1 (stereo not drawn)
Result: 8.6

---

test system: U-251; test: Growth inhibition of human U251 cells after 48 hrs by SRB assay; format: functional; conditions: U-251, 48 h
param class (str): category from GI50; see ranges low band: < 4 µM; middle band: ≥ 4 µM and < 20 µM; high band: ≥ 20 µM

For orientation, consider the following solved cases.
compound="CCN1CCN(CCCc2ccc(C(c3ccccc3)C34CC5CC(CC(C5)C3)C4)cc2)CC1 (centres undefined)" cat="middle band"
compound="CN1CCN(CCCc2ccc(C(c3ccccc3)C34CC5CC(CC(C5)C3)C4)cc2)CC1 (centres undefined)" cat="low band"
compound="c1ccc(CN2CCN(CCCc3ccc(C(c4ccccc4)C45CC6CC(CC(C6)C4)C5)cc3)CC2)cc1 (centres undefined)" cat="high band"
compound=O=c1[nH]cc(F)c(=O)[nH]1 cat="high band"

Query: Using the reported GI50, which band applies to c1ccc(C(c2ccc(CN3CCNCC3)cc2)C23CC4CC(CC(C4)C2)C3)cc1 (centres undefined) ?
Result: low band

Query: Repeat with CN1CCN(CCc2ccc(C(c3ccccc3)C34CC5CC(CC(C5)C3)C4)cc2)CC1 (centres undefined)
Result: low band

Query: Repeat with c1ccc(C(c2ccc(CN3CCCCC3)cc2)C23CC4CC(CC(C4)C2)C3)cc1 (centres undefined)
Result: middle band

Query: Repeat with CCN1CCN(CCc2ccc(C(c3ccccc3)C34CC5CC(CC(C5)C3)C4)cc2)CC1 (centres undefined)
Result: low band

Query: Repeat with c1ccc(C(c2ccc(CCN3CCCCC3)cc2)C23CC4CC(CC(C4)C2)C3)cc1 (centres undefined)
Result: high band

---

test system: SK-HEP1; assay: Growth inhibition of human SKHEP1 cells after 48 hrs by SRB assay; format: functional; settings: SK-HEP1, 48 h
measured parameter: GI50 (µM)
Just the number in µM, nothing appended.

// worked examples, GI50 included
compound="c1ccc(C(c2ccc(CCN3CCCCC3)cc2)C23CC4CC(CC(C4)C2)C3)cc1 (configuration not stated)" measurement_units=µM observed_result=8.61
compound="CN1CCN(Cc2ccc(C(c3ccccc3)C34CC5CC(CC(C5)C3)C4)cc2)CC1 (configuration not stated)" measurement_units=µM observed_result=3.35
compound="CCN1CCN(CCc2ccc(C(c3ccccc3)C34CC5CC(CC(C5)C3)C4)cc2)CC1 (configuration not stated)" measurement_units=µM observed_result=4.14
compound="c1ccc(C(c2ccc(CN3CCCCC3)cc2)C23CC4CC(CC(C4)C2)C3)cc1 (configuration not stated)" measurement_units=µM observed_result=7.46
compound="c1ccc(C(c2ccc(CCCN3CCNCC3)cc2)C23CC4CC(CC(C4)C2)C3)cc1 (configuration not stated)" measurement_units=µM observed_result=3.67

Query: Give the measured GI50 of CCN1CCN(CCCc2ccc(C(c3ccccc3)C34CC5CC(CC(C5)C3)C4)cc2)CC1 (configuration not stated) .
Result: 3.41

Query: Repeat with CN1CCN(CCCc2ccc(C(c3ccccc3)C34CC5CC(CC(C5)C3)C4)cc2)CC1 (configuration not stated)
Result: 3.49

src = ChEMBL document CHEMBL2202989
